Data provenance is PubChem BioAssay (NCI).

Catalogue of molecules with associated growth
# System: NCI-H460 lung
# experiment-description: NCI-60 one-dose screen, 48 h (100 = growth as untreated, 0 = no growth, -100 = all killed)
# condition: 10 µM unless noted
The panel holds about 83,000 compounds, 20% with a hit somewhere; the sample as a whole holds those more often.
Entry rule: numbers only, all in %.

The examples below pair each entry with its known result.
{"smiles-entry": "O=C(NO)c1ccc(CNc2cccc3nc(C4CC4)n(-c4ccccc4)c(=O)c23)cc1", "property": "growth", "measured-number": 22.6}
{"smiles-entry": "COc1cnc2c(c1)C(=O)c1c-2n(CCCN2CCNCC2)c(=O)c2cc(Cl)ccc12", "property": "growth", "measured-number": -81.2}
{"smiles-entry": "c1cn2cc(-c3ccc4ncn(C5CCCCC5)c4c3)nc(-c3ccc4c(c3)ncn4C3CCCCC3)c2n1", "property": "growth", "measured-number": -48.5}
{"smiles-entry": "COc1ccc(-c2conc2-n2nc(-c3ccccc3)nc2-c2ccccc2)cc1", "property": "growth", "measured-number": 120}

Switching to the query record.
Q) Quick one: give measured growth for `O=C(Nc1cccc(C2=NCCN2)c1)c1ccc(N=Nc2ccc(C(=O)Nc3cccc(C4=NCCN4)c3)cc2)cc1`
A) 41.9
